biological target: CDK6/Cyclin D1 (Homo sapiens, UniProt Q00534); test: NanoBRET live-cell target engagement, NanoLuc-CDK6/Cyclin D1 in HEK-293; format: binding; details: CDK6/D1; 10µM; average of replicates; read-out: Inhibition at 10µM (%) Average
Sequence (Q00534 whole entry): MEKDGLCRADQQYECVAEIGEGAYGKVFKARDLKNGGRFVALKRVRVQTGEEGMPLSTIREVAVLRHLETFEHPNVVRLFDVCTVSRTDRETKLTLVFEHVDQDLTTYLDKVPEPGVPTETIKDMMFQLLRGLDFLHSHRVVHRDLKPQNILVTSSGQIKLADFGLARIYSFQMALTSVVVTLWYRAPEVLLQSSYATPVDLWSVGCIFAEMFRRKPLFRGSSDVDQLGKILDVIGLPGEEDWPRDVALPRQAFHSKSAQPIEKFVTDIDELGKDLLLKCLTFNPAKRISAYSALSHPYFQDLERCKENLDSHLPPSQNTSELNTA
Sequence (P24385 whole entry partner): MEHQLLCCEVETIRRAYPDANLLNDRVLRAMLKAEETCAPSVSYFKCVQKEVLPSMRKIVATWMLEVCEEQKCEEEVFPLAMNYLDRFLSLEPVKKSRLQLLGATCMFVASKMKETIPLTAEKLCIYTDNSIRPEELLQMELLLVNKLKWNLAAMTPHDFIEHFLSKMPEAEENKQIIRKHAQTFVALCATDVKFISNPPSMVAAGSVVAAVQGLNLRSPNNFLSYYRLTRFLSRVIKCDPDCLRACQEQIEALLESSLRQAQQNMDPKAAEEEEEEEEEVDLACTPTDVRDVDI
measuredMetric: inhibition at 10 µM (%)

{"molecule": "CCCCOc1c(C(=O)c2c(F)cc(C)cc2F)c[nH]c2nncc1-2 [BMS-265246]", "studySystem": "CDK6/Cyclin D1 (Homo sapiens, UniProt Q00534)", "unit": "%", "measValue": 68}
{"molecule": "COc1cc(F)ccc1-c1cc(Nc2cc(CS(C)(=N)=O)ccn2)ncc1F (stereo not shown) [BAY-1251152]", "studySystem": "CDK6/Cyclin D1 (Homo sapiens, UniProt Q00534)", "unit": "%", "measValue": 86.3}
{"molecule": "C[C@H]1CC[C@H](n2c3cnccc3c3cnc(Nc4ccc5c(n4)CCN(C(=O)CO)C5)nc32)CC1 [AMG 925]", "studySystem": "CDK6/Cyclin D1 (Homo sapiens, UniProt Q00534)", "unit": "%", "measValue": 99.1}
{"molecule": "COc1cc(F)ccc1-c1ncnc(Nc2cccc(C[S@](C)(=N)=O)c2)n1 [Atuveciclib]", "studySystem": "CDK6/Cyclin D1 (Homo sapiens, UniProt Q00534)", "unit": "%", "measValue": 64.1}

---

molecular target: CDK11A/Cyclin L2 (Homo sapiens, UniProt Q9UQ88); assay: NanoBRET live-cell target engagement, CDK11A-NanoLuc/Cyclin L2 in HEK-293; assay type: binding; settings: 10µM; independent experiment 1
Sequence (Q9UQ88 whole entry): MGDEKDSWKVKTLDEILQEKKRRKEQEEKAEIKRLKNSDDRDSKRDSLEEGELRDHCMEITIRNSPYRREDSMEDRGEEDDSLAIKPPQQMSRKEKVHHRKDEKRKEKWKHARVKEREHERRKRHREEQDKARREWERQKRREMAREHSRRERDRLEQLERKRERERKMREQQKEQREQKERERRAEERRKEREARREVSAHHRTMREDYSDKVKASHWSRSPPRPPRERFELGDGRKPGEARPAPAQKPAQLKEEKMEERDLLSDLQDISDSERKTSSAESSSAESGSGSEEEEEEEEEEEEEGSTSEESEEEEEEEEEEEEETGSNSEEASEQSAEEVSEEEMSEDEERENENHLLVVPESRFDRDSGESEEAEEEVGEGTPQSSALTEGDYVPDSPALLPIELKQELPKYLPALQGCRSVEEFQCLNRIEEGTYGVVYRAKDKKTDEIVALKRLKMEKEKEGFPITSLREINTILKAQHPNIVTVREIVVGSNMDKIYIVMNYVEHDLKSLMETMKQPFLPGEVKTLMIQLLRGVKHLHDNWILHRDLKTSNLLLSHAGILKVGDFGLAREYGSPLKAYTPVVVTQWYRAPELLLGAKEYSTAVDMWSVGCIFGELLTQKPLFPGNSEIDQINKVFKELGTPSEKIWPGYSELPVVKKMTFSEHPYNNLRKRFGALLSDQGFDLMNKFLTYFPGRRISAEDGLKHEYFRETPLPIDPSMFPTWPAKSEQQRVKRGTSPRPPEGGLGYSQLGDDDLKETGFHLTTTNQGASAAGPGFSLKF
CDK11a/L2 Inhibition at 10µM (%) by entry:

{"compound": "O=C1NC(=NCc2cccs2)S/C1=C\\c1ccc2ncccc2c1", "unit": "%", "CDK11a/L2 Inhibition at 10µM (%)": 51.4}
{"compound": "Cc1c(Br)c(Br)c2c3c1nc(N1CCNCC1)n3CCC2.Cl [SEL 120-34A]", "unit": "%", "CDK11a/L2 Inhibition at 10µM (%)": 31.1}
{"compound": "O=C1NCCc2[nH]c(-c3ccncc3)cc21", "unit": "%", "CDK11a/L2 Inhibition at 10µM (%)": 26.5}
{"compound": "CN(C)C/C=C/C(=O)Nc1ccc(C(=O)Nc2cccc(Nc3ncc(Cl)c(-c4c[nH]c5ccccc45)n3)c2)cc1", "unit": "%", "CDK11a/L2 Inhibition at 10µM (%)": 8.0}

---

CDK11b/L2 Inhibition at 10µM (%) by entry:
biological target: CDK11B/Cyclin L2 (Homo sapiens, UniProt P21127); test: NanoBRET live-cell target engagement, CDK11B-NanoLuc/Cyclin L2 in HEK-293; assay type: binding; details: 10µM; average of experiments
Sequence (P21127 1-782 isoform P21127-2): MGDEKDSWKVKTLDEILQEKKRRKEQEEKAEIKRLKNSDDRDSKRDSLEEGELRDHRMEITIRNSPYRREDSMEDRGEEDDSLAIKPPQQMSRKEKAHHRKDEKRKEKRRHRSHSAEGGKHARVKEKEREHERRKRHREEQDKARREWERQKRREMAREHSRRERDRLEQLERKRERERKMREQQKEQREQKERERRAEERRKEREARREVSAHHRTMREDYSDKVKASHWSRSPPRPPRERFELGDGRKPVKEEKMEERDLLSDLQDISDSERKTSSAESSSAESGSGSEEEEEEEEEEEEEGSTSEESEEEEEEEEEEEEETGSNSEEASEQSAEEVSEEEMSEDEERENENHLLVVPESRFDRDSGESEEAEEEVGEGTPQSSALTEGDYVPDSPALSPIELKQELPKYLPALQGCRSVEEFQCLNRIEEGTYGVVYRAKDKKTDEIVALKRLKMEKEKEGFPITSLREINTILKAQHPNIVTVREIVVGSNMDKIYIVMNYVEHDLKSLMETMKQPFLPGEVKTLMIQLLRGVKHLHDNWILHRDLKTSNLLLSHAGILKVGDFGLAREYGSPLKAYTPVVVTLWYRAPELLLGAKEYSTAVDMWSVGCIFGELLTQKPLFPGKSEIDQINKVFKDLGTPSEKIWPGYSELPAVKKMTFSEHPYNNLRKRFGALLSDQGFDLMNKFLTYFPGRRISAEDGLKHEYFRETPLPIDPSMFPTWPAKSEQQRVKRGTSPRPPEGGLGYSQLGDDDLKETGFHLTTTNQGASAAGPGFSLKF

{"molecule": "O=C1NCCc2[nH]c(-c3ccncc3)cc21 [PHA-767491]", "studySystem": "CDK11B/Cyclin L2 (Homo sapiens, UniProt P21127)", "CDK11b/L2 Inhibition at 10µM (%)": 42.2}
{"molecule": "CN(C)C/C=C/C(=O)Nc1ccc(C(=O)Nc2cccc(Nc3ncc(Cl)c(-c4c[nH]c5ccccc45)n3)c2)cc1 [THZ1]", "studySystem": "CDK11B/Cyclin L2 (Homo sapiens, UniProt P21127)", "CDK11b/L2 Inhibition at 10µM (%)": 34.5}
{"molecule": "Cc1c(Br)c(Br)c2c3c1nc(N1CCNCC1)n3CCC2.Cl [SEL 120-34A]", "studySystem": "CDK11B/Cyclin L2 (Homo sapiens, UniProt P21127)", "CDK11b/L2 Inhibition at 10µM (%)": 38.1}
{"molecule": "O=C1NC(=NCc2cccs2)S/C1=C\\c1ccc2ncccc2c1 [RO-3306]", "studySystem": "CDK11B/Cyclin L2 (Homo sapiens, UniProt P21127)", "CDK11b/L2 Inhibition at 10µM (%)": 10.3}

---

target: CDK20/Cyclin H (Homo sapiens); experiment: NanoBRET live-cell target engagement, NanoLuc-CDK20/Cyclin H in HEK-293; type: binding; details: 10µM; independent experiment 1
Sequence (Q8IZL9 whole entry): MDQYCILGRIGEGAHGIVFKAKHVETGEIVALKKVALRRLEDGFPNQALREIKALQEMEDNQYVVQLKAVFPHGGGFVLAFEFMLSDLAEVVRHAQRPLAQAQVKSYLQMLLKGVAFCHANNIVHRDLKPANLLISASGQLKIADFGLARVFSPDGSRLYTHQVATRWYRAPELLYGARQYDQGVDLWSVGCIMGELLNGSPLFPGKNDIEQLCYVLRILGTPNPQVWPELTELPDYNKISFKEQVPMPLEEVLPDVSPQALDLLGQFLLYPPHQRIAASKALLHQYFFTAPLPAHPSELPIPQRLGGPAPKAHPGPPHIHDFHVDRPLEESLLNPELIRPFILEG
Sequence (P51946 whole entry partner): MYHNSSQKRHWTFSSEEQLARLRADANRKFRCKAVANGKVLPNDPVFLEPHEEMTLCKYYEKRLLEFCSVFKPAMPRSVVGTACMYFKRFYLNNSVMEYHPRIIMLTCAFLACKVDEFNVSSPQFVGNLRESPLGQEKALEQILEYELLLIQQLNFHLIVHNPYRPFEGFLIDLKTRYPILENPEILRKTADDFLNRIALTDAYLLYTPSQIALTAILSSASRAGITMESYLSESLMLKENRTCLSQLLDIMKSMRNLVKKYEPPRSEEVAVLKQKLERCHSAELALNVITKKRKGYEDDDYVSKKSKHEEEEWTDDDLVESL

{"molecule": "O=C1NC(=NCc2cccs2)S/C1=C\\c1ccc2ncccc2c1 [RO-3306]", "unit": "%", "CDK20/H Inhibition at 10µM (%)": 63.6}
{"molecule": "CN(C)C/C=C/C(=O)Nc1ccc(C(=O)Nc2cccc(Nc3ncc(Cl)c(-c4c[nH]c5ccccc45)n3)c2)cc1 [THZ1]", "unit": "%", "CDK20/H Inhibition at 10µM (%)": 63.8}
{"molecule": "Cc1c(Br)c(Br)c2c3c1nc(N1CCNCC1)n3CCC2.Cl [SEL 120-34A]", "unit": "%", "CDK20/H Inhibition at 10µM (%)": 7.8}
{"molecule": "O=C1NCCc2[nH]c(-c3ccncc3)cc21 [PHA-767491]", "unit": "%", "CDK20/H Inhibition at 10µM (%)": 1.2}

---

biological target: CDK15/Cyclin Y (Homo sapiens, UniProt Q96Q40); test: NanoBRET live-cell target engagement, NanoLuc-CDK15/Cyclin Y in HEK-293; format: binding; details: 10µM; independent experiment 1
Sequence (Q96Q40 whole entry): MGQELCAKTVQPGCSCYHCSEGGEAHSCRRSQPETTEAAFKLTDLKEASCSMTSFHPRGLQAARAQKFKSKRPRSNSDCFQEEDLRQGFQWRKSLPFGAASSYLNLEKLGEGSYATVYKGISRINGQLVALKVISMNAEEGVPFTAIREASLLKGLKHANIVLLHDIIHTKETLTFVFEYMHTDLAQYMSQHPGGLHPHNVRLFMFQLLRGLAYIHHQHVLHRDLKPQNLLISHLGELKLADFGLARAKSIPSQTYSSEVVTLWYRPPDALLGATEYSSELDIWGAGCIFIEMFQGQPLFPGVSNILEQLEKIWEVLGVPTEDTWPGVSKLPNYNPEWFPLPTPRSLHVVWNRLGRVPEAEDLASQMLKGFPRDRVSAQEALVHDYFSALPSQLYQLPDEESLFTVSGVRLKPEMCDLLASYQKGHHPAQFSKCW
Sequence (Q8ND76 whole entry partner): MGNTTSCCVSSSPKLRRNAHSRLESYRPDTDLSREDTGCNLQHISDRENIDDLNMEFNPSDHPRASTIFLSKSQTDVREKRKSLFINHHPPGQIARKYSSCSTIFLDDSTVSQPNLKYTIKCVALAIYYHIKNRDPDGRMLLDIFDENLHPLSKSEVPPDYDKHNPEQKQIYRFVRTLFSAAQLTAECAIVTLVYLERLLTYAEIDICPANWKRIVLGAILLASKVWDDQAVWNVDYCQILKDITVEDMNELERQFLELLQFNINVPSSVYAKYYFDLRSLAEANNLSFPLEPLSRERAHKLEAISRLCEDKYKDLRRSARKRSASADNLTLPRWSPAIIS
CDK15/Y Inhibition at 10µM (%) by entry:
measuredMetric: CDK15/Y Inhibition at 10µM (%)

{"compound": "CN(C)C/C=C/C(=O)Nc1ccc(C(=O)Nc2cccc(Nc3ncc(Cl)c(-c4c[nH]c5ccccc45)n3)c2)cc1", "measValue": "40.7%"}
{"compound": "O=C1NCCc2[nH]c(-c3ccncc3)cc21", "measValue": "6.2%"}
{"compound": "O=C1NC(=NCc2cccs2)S/C1=C\\c1ccc2ncccc2c1", "measValue": "12.8%"}
{"compound": "Cc1c(Br)c(Br)c2c3c1nc(N1CCNCC1)n3CCC2.Cl [SEL 120-34A]", "measValue": "38.3%"}

---

biological target: CDK2/Cyclin E1 (Homo sapiens, UniProt P24941); experiment: NanoBRET live-cell target engagement, CDK2-NanoLuc/Cyclin E1 in HEK-293; assay type: binding; settings: 10µM; average of experiments; read-out: CDK2/E1 Inhibition at 10µM (%)

{"compound": "COCCN1CCN(Cc2ccc(-c3n[nH]c4c3C(=O)c3c(NC(=O)NN5CCOCC5)cccc3-4)cc2)CC1 [RGB286638]", "studySystem": "CDK2/Cyclin E1 (Homo sapiens, UniProt P24941)", "unit": "%", "inhibition at 10 µM": 84.4}
{"compound": "CN(C)C/C=C/C(=O)Nc1ccc(C(=O)N2CCC[C@@H](Nc3ncc(Cl)c(-c4c[nH]c5ccccc45)n3)C2)cc1 [THZ531]", "studySystem": "CDK2/Cyclin E1 (Homo sapiens, UniProt P24941)", "unit": "%", "inhibition at 10 µM": 52.7}
{"compound": "CN1CCN(c2ccc(Nc3ncc4cc5n(c4n3)C3(CCCCC3)CNC5=O)nc2)CC1 [Trilaciclib]", "studySystem": "CDK2/Cyclin E1 (Homo sapiens, UniProt P24941)", "unit": "%", "inhibition at 10 µM": 0.461}
{"compound": "CC(C)CC(=O)Nc1[nH]nc2c1CN(C(=O)C1CCN(C)CC1)C2(C)C [PHA-793887]", "studySystem": "CDK2/Cyclin E1 (Homo sapiens, UniProt P24941)", "unit": "%", "inhibition at 10 µM": 96}
{"compound": "CN1C/C=C/CCOc2cccc(c2)-c2ccnc(n2)Nc2cccc(c2)C1 [SB1317]", "studySystem": "CDK2/Cyclin E1 (Homo sapiens, UniProt P24941)", "unit": "%", "inhibition at 10 µM": 96.5}
{"compound": "CC(C)[C@H](CO)Nc1nc(Nc2ccc(C(=O)O)c(Cl)c2)c2ncn(C(C)C)c2n1 [Purvalanol B]", "studySystem": "CDK2/Cyclin E1 (Homo sapiens, UniProt P24941)", "unit": "%", "inhibition at 10 µM": 66.9}

---

molecular target: CDK5/CDK5R1 (Homo sapiens, UniProt Q00535); experiment: NanoBRET live-cell target engagement, CDK5-NanoLuc/CDK5R1 in HEK-293; type: binding; conditions: 10µM; independent experiment 2; read-out: CDK5/CDK5R1 Inhibition at 10µM (%)
Sequence (Q00535 whole entry): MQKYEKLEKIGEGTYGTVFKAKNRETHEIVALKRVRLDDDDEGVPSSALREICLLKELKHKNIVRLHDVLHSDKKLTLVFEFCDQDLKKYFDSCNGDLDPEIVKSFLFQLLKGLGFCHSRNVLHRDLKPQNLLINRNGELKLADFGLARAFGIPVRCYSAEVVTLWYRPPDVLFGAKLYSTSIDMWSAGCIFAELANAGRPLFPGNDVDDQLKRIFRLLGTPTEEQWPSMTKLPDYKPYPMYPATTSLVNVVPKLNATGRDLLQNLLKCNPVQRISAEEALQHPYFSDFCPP
Sequence (Q15078 whole entry partner): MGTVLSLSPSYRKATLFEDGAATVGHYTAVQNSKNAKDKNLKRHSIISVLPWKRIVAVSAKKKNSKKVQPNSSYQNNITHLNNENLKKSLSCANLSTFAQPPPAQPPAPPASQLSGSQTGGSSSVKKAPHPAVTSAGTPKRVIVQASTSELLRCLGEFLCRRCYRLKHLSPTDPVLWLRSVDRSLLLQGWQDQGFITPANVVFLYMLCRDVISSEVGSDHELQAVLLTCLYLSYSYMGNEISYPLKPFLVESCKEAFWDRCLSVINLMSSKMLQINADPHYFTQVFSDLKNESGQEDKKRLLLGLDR
inhibition at 10 µM by entry:
measuredMetric: inhibition at 10 µM (%)

{"smilesCode": "CC(C)CC(=O)Nc1[nH]nc2c1CN(C(=O)C1CCN(C)CC1)C2(C)C", "measValue": 94.2}
{"smilesCode": "CN1CCN(c2ccc(Nc3ncc4cc5n(c4n3)C3(CCCCC3)CNC5=O)nc2)CC1", "measValue": -22.7}
{"smilesCode": "CC(=O)c1c(C)c2cnc(Nc3ccc(N4CCNCC4)cn3)nc2n(C2CCCC2)c1=O", "measValue": 37.6}
{"smilesCode": "CN1C/C=C/CCOc2cccc(c2)-c2ccnc(n2)Nc2cccc(c2)C1", "measValue": 98.1}
